Measured on: Tubulin
Measurement notes: Inhibition of tubulin polymerization (unknown origin) by absorbance based analysis
Quantity name: IC50 (µM)

[[record]]
molecule = "CC(C)(C)S(=O)(=O)NCC1(Sc2nc3ccccc3[nH]2)C(=O)N(Cc2ccc(Br)cc2)c2ccccc21 (stereo unspecified)"
unit_label = "µM"
observed_result = 9.73


###

Reported values of pIC50 for individual entries
System: MCF7
Measurement notes: Cytotoxicity against human MCF7 cells assessed as inhibition of cell growth measured after 72 hrs by MTT assay
Format: functional, cell-based
Run conditions: MCF7, 72 h
pIC50: −log10 of the molar value.
Quantity name: pIC50

[[record]]
compound = "Cc1ccc2c(c1)C(CNS(=O)(=O)C(C)(C)C)(Sc1nc3ccccc3s1)C(=O)N2C (configuration not stated)"
quantity_name = "pIC50"
qualifier_operator = "="
observed_result = 4.77

[[record]]
compound = "COc1cccc(-c2nnc(SC3(CNS(=O)(=O)C(C)(C)C)C(=O)N(Cc4ccc(Br)cc4)c4ccccc43)n2-c2ccccc2)c1 (configuration not stated)"
quantity_name = "pIC50"
qualifier_operator = "="
observed_result = 4.45

[[record]]
compound = "Cc1ccc2c(c1)C(CNS(=O)(=O)C(C)(C)C)(Sc1nnc(-c3ccccc3)o1)C(=O)N2Cc1ccccc1 (configuration not stated)"
quantity_name = "pIC50"
qualifier_operator = "="
observed_result = 4.47

[[record]]
compound = "CC(C)(C)S(=O)(=O)NCC1(Sc2nnc(-c3cccc(Br)c3)o2)C(=O)N(Cc2ccccc2)c2ccccc21 (configuration not stated)"
quantity_name = "pIC50"
qualifier_operator = "="
observed_result = 4.89

[[record]]
compound = "CC(C)(C)S(=O)(=O)NCC1(Sc2nc3ccccc3[nH]2)C(=O)N(Cc2ccccc2)c2ccccc21 (configuration not stated)"
quantity_name = "pIC50"
qualifier_operator = "<"
observed_result = 4.30

[[record]]
compound = "O=c1[nH]cc(F)c(=O)[nH]1"
quantity_name = "pIC50"
qualifier_operator = "="
observed_result = 4.61

[[record]]
compound = "Cc1ccc(CN2C(=O)C(CNS(=O)(=O)C(C)(C)C)(Sc3nnc(-c4ccccc4)o3)c3ccccc32)cc1 (configuration not stated)"
quantity_name = "pIC50"
qualifier_operator = "="
observed_result = 4.86


###

Measurement notes: Cytotoxicity against rat NRK cells assessed as inhibition of cell growth measured after 72 hrs by MTT assay
Type: toxicity, cell-based
Quantity name: IC50 at 72 h

[[record]]
molecule = "Cc1ccc2c(c1)C(CNS(=O)(=O)C(C)(C)C)(Sc1nc3ccccc3s1)C(=O)N2C (stereo not given)"
observed_result = "26.8 µM"

[[record]]
molecule = "CC(C)(C)S(=O)(=O)NCC1(Sc2nc3ccccc3[nH]2)C(=O)N(Cc2ccccc2)c2ccccc21 (stereo not given)"
observed_result = "17.9 µM"

[[record]]
molecule = "Cc1ccc(CN2C(=O)C(CNS(=O)(=O)C(C)(C)C)(Sc3nnc(-c4ccccc4)o3)c3ccccc32)cc1 (stereo not given)"
observed_result = "18 µM"

[[record]]
molecule = "COc1cccc(-c2nnc(SC3(CNS(=O)(=O)C(C)(C)C)C(=O)N(Cc4ccc(Br)cc4)c4ccccc43)n2-c2ccccc2)c1 (stereo not given)"
observed_result = "21.8 µM"

[[record]]
molecule = "CC(C)(C)S(=O)(=O)NCC1(Sc2nc3ccccc3[nH]2)C(=O)N(Cc2ccc(Br)cc2)c2ccccc21 (stereo not given)"
observed_result = "38.4 µM"

[[record]]
molecule = "COc1cccc(-c2nnc(SC3(CNS(=O)(=O)C(C)(C)C)C(=O)N(Cc4ccccc4)c4ccccc43)o2)c1 (stereo not given)"
observed_result = "22.9 µM"

[[record]]
molecule = "CC(C)(C)S(=O)(=O)NCC1(Sc2nnc(-c3ccc(Cl)c(Cl)c3)o2)C(=O)N(Cc2ccc(Br)cc2)c2ccccc21 (stereo not given)"
observed_result = "21.9 µM"

[[record]]
molecule = "CN1C(=O)C(CNS(=O)(=O)C(C)(C)C)(Sc2nc3ccccc3[nH]2)c2cc(Br)ccc21 (stereo not given)"
observed_result = "25.7 µM"

[[record]]
molecule = "CC(C)(C)S(=O)(=O)NCC1(Sc2nnc(-c3ccccc3)o2)C(=O)N(Cc2ccccc2)c2ccc(F)cc21 (stereo not given)"
observed_result = "33.3 µM"

[[record]]
molecule = "Cc1ccc(CN2C(=O)C(CNS(=O)(=O)C(C)(C)C)(Sc3nc4ccccc4[nH]3)c3ccccc32)cc1 (stereo not given)"
observed_result = "21.8 µM"


###

Test system: A549
Measurement notes: Cytotoxicity against human A549 cells assessed as inhibition of cell growth measured after 72 hrs by MTT assay
Type: functional, cell-based
Run conditions: A549, 72 h
pIC50: −log10 of the molar value.
Each record here notes measured pIC50.
Quantity name: pIC50

[[record]]
compound = "CN1C(=O)C(CNS(=O)(=O)C(C)(C)C)(Sc2nc3ccccc3[nH]2)c2cc(Br)ccc21 (stereo not given)"
qualifier_operator = "="
observed_result = 4.74

[[record]]
compound = "Cc1ccc(CN2C(=O)C(CNS(=O)(=O)C(C)(C)C)(Sc3nc4ccccc4[nH]3)c3ccccc32)cc1 (stereo not given)"
qualifier_operator = "="
observed_result = 4.88

[[record]]
compound = "CC(C)(C)S(=O)(=O)NCC1(Sc2nnc(-c3ccc(Cl)c(Cl)c3)o2)C(=O)N(Cc2ccc(Br)cc2)c2ccccc21 (stereo not given)"
qualifier_operator = "="
observed_result = 4.38

[[record]]
compound = "Cc1ccc2c(c1)C(CNS(=O)(=O)C(C)(C)C)(Sc1nnc(-c3ccccc3)o1)C(=O)N2Cc1ccccc1 (stereo not given)"
qualifier_operator = "<"
observed_result = 4.30

[[record]]
compound = "CC(C)(C)S(=O)(=O)NCC1(Sc2nnc(-c3ccccc3)o2)C(=O)N(Cc2ccccc2)c2ccccc21 (stereo not given)"
qualifier_operator = "="
observed_result = 4.85

[[record]]
compound = "Cc1ccc(CN2C(=O)C(CNS(=O)(=O)C(C)(C)C)(Sc3nnc(-c4ccccc4)o3)c3ccccc32)cc1 (stereo not given)"
qualifier_operator = "="
observed_result = 4.85

[[record]]
compound = "CC(C)(C)S(=O)(=O)NCC1(Sc2nnc(-c3ccccc3)o2)C(=O)N(Cc2ccccc2)c2ccc(F)cc21 (stereo not given)"
qualifier_operator = "="
observed_result = 4.42

[[record]]
compound = "Cc1ccc2c(c1)C(CNS(=O)(=O)C(C)(C)C)(Sc1nc3ccccc3s1)C(=O)N2C (stereo not given)"
qualifier_operator = "="
observed_result = 4.74

[[record]]
compound = "CC(C)(C)S(=O)(=O)NCC1(Sc2nnc(-c3cccc(Br)c3)o2)C(=O)N(Cc2ccccc2)c2ccccc21 (stereo not given)"
qualifier_operator = "="
observed_result = 4.92

[[record]]
compound = "O=c1[nH]cc(F)c(=O)[nH]1"
qualifier_operator = "="
observed_result = 4.60

[[record]]
compound = "COc1cccc(-c2nnc(SC3(CNS(=O)(=O)C(C)(C)C)C(=O)N(Cc4ccc(Br)cc4)c4ccccc43)n2-c2ccccc2)c1 (stereo not given)"
qualifier_operator = "<"
observed_result = 4.30

[[record]]
compound = "CC(C)(C)S(=O)(=O)NCC1(Sc2nnc(-c3ccc(Cl)cc3)n2-c2ccccc2)C(=O)N(Cc2ccccc2)c2ccccc21 (stereo not given)"
qualifier_operator = "<"
observed_result = 4.30

[[record]]
compound = "CC(C)(C)S(=O)(=O)NCC1(Sc2nc3ccccc3[nH]2)C(=O)N(Cc2ccccc2)c2ccccc21 (stereo not given)"
qualifier_operator = "="
observed_result = 4.51

[[record]]
compound = "CC(C)(C)S(=O)(=O)NCC1(Sc2nc3ccccc3[nH]2)C(=O)N(Cc2ccc(Br)cc2)c2ccccc21 (stereo not given)"
qualifier_operator = "="
observed_result = 4.72

[[record]]
compound = "COc1cccc(-c2nnc(SC3(CNS(=O)(=O)C(C)(C)C)C(=O)N(Cc4ccccc4)c4ccccc43)o2)c1 (stereo not given)"
qualifier_operator = "="
observed_result = 4.51


###

Parameter: IC50 at 72 h. Scope: all listed entries.
Measurement notes: Cytotoxicity against rat NRK cells assessed as inhibition of cell growth measured after 72 hrs by MTT assay
Assay type: toxicity, cell-based
Quantity name: IC50 at 72 h (µM)

[[record]]
compound = "CC(C)(C)S(=O)(=O)NCC1(Sc2nnc(-c3cccc(Br)c3)o2)C(=O)N(Cc2ccccc2)c2ccccc21 (centres undefined)"
unit_label = "µM"
observed_result = 14.1

[[record]]
compound = "CC(C)(C)S(=O)(=O)NCC1(Sc2nnc(-c3ccccc3)o2)C(=O)N(Cc2ccccc2)c2ccccc21 (centres undefined)"
unit_label = "µM"
observed_result = 31.9

[[record]]
compound = "Cc1ccc2c(c1)C(CNS(=O)(=O)C(C)(C)C)(Sc1nnc(-c3ccccc3)o1)C(=O)N2Cc1ccccc1 (centres undefined)"
unit_label = "µM"
observed_result = 12.7

[[record]]
compound = "CC(C)(C)S(=O)(=O)NCC1(Sc2nnc(-c3ccc(Cl)cc3)n2-c2ccccc2)C(=O)N(Cc2ccccc2)c2ccccc21 (centres undefined)"
unit_label = "µM"
observed_result = 24.8

